# methodNotes: Toxicokinetics in the 28 day dog study of DIO-902 (with racemic ketoconazole group a)
# cond: female, beagle, plasma, po, 6.5 mg/kg, Tmax Range, dogs, 6.5 mg/kg oral, day 28, F
testReadout: Tmax

CC(=O)N1CCN(c2ccc(OC[C@@H]3CO[C@@](Cn4ccnc4)(c4ccc(Cl)cc4Cl)O3)cc2)CC1 [DIO-902] yielded Tmax of 2 to 8 h

---

# methodNotes: Toxicokinetics in the 28 day dog study of DIO-902 (with racemic ketoconazole group a);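 also: beagle dogs dosed orally once daily within a 28-day GLP study, 3 animals per sex per group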
# cond: female, beagle, plasma, po, 20 mg/kg, Tmax Range, dogs, 20 mg/kg oral, day 1, F
testReadout: Tmax

CC(=O)N1CCN(c2ccc(OC[C@@H]3CO[C@@](Cn4ccnc4)(c4ccc(Cl)cc4Cl)O3)cc2)CC1 yielded Tmax of 4 to 8 h

The origin of these recorded values is patent US11478471B2.
